Molecular target: T1, rat serum albumin (rat, UniProt P02770 25-608)
T1 construct: Control coat in the screening ELISA; also called RSA
T1 sequence (P02770 25-608 limits assumed): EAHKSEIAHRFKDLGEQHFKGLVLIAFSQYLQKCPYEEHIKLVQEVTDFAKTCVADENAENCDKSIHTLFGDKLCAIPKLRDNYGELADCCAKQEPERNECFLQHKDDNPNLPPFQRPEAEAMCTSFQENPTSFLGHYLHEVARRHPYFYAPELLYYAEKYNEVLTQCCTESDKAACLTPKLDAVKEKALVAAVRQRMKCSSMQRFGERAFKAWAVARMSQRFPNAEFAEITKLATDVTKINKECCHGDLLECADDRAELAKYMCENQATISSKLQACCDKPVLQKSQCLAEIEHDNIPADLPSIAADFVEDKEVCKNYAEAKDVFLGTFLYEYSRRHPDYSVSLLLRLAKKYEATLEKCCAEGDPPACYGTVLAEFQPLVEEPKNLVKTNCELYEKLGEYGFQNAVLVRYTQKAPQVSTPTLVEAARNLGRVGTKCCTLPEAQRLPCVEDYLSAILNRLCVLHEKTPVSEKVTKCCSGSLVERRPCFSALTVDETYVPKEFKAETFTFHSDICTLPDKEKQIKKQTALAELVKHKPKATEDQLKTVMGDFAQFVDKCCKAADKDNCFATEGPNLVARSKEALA
Test: method not stated (unpublished results); unpublished results; method and construct not stated
EXPERIMENTAL ENDPOINT: pKd
Scale explanation: pKd corresponds to minus log10 of a concentration expressed in moles per litre.

Input: Which pKd value belongs to LAEAKVLANRELDKYGVSDYYKNLINNAKTVEGVKALIDEILAALP (other) [ABDwt (construct not stated; unpublished results)] ?
Output: 10.15
